experiment: folding stability dG unfold from chymotrypsin proteolysis; higher = more stable
MEASURE_NAME: folding stability dG unfold
Hey, just the number and the unit after it is fine.

>  <SEQUENCE_ENTRY>
SAGGSAMKLPKNVKITITKNKDGTVTITITYPDGKKITITMKIDKNGKLKFTKEQIKKLIKELAKKSAGGSA [r15_780_TrROS_Hall]

>  <folding stability dG unfold>
2.52 kcal/mol

$$$$

Below is a list of sequences. For each, state its recorded folding stability dG unfold.
1. SAGGSAGGEEAPPPPVTVTVTIEVEENEDGTLTVRIEVRDEATGETRTITVTMTLEELEELAKASAGGSAGG [r6_995_TrROS_Hall]
2. SAGGSAGGSAGGSPVLKTEEKALPNGTVVTTEFLPGGRRREVITPPDGTVKVVEREIERSAGGSAGGSAGGS [r10_1184_JUSTAS]
3. SAGGSAGGSEEEKLKKLKEKLKPPKIKVKIEVKVEYDKETGKLKVEATVEINGKKYKLTIEFPSAGGSAGGS [r20_230_TrROS_Hall]
4. SKTYTAEEIKKLFPNIKKVEVKDGKVRLTVENENGEKFEIEITFEAPKPEPEVEEEVEKKKEEELSEEDLSA [r9_427_TrROS_Hall]
5. SAGGSAGGGMKITEITIEKDPENPDTYTITIKVDGKTYTITVKKGETLYIFDKDGKLVLEIKVDSAGGSAGG [r6_920_TrROS_Hall]

["2.56 kcal/mol", "0.356 kcal/mol", "4.19 kcal/mol", "2.62 kcal/mol", "5.24 kcal/mol"]

Below is a list of sequences. For each, state its recorded folding stability dG unfold.
1. SAMTVEIEFPPELEVEELVEKLKEAFPGEEIEVEAERDPVEPRLRIRVTVDDPELAEEVEKKLRELVEESAG [r14_443_TrMRF]
2. SAGGSAKATLPEGVKIETKTFKLDGRKYMPFVFEAPDDDWVWVNEMRMDPNGKMEMETIWIPPDAVSAGGSA [r15_986_TrROS]
3. SAMIMIRVEYPNGKTWPIMIPLRTPDGDPTKEEVEEIAERIADEIAEEHGGDNVKIEIQVMPMPPEENPSAG [r14_378_TrROS]
4. SAGGSAKITIHMAPDGMFQIEIKTGGKERTYHVDMPLEQIKDELEDEGLEIKDIEITPFPPDPEDFSAGGSA [r15_576_TrROS]
5. SAGGSAGGSAKPLKKLVLLLKVKGPFEEVEKILNEEFGVKKIVAFKDPETDEVYALIYLGDPSAGGSAGGSA [r18_275_TrMRF]
6. SAKYYFITVEIYMRTGGGPRKMDITVMIPPEEMPPEDVKEIAKEIADWLAEHHPGFEVKVTIIPPDDMKSAG [r14_723_TrROS]
7. SAGGSAGGSAGKKKVKLVEFDEETGYALLEVEDEETGETKLVLVPMTAEELEALPNIEVLSAGGSAGGSAGG [r17_46_TrROS_Hall]

1: 2.21 kcal/mol; 2: 0.384 kcal/mol; 3: 1.5 kcal/mol; 4: -0.146 kcal/mol; 5: 2.86 kcal/mol; 6: 4.07 kcal/mol; 7: 1.91 kcal/mol

What value of measured folding stability dG unfold is listed for SAKKHIPIPMDDPENLKKAIEEALENAENGKKVEIPIRSPDGPVWIEVDPKKKDIKIRNPGNGEERKIKSAG [r14_423_TrROS] ?
0.228 kcal/mol
